- System: Staphylococcus epidermidis
- experimental-protocol: Antibacterial activity against Staphylococcus epidermidis MTCC3615 by broth microdilution assay
- Assay type: functional
readout-name: MIC

given-smiles: CN1CCN(CCCNc2nc3cc([N+](=O)[O-])ccc3nc2NCc2ccc(C(F)(F)F)cc2)CC1
target-entity: Staphylococcus epidermidis
readout-name: MIC
value-reported: 3.78 µg/mL
--
given-smiles: CN(C)CCCNc1nc2cc([N+](=O)[O-])ccc2nc1NCc1cc(F)cc(C(F)(F)F)c1
target-entity: Staphylococcus epidermidis
readout-name: MIC
value-reported: 1.63 µg/mL
--
given-smiles: CN(C)CCCNc1nc2cc([N+](=O)[O-])ccc2nc1NCc1ccccc1C(F)(F)F
target-entity: Staphylococcus epidermidis
readout-name: MIC
value-reported: 2.24 µg/mL
--
given-smiles: COc1ccccc1CNc1nc2ccc([N+](=O)[O-])cc2nc1NCCCN(C)C
target-entity: Staphylococcus epidermidis
readout-name: MIC
value-reported: 6.16 µg/mL
--
given-smiles: CN(C)CCCNc1nc2cc([N+](=O)[O-])ccc2nc1NCc1cccc(C(F)(F)F)c1
target-entity: Staphylococcus epidermidis
readout-name: MIC
value-reported: 0.89 µg/mL
--
given-smiles: O=[N+]([O-])c1ccc2nc(NCc3ccc(C(F)(F)F)cc3)c(N3CCNCC3)nc2c1
target-entity: Staphylococcus epidermidis
readout-name: MIC
value-reported: 4.32 µg/mL
--
given-smiles: Cc1ccc(CNc2nc3ccc([N+](=O)[O-])cc3nc2NCCCN(C)C)cc1
target-entity: Staphylococcus epidermidis
readout-name: MIC
value-reported: 3.94 µg/mL
--
given-smiles: CN(C)CCCNc1nc2cc([N+](=O)[O-])ccc2nc1NCc1ccccc1
target-entity: Staphylococcus epidermidis
readout-name: MIC
value-reported: 13.3 µg/mL
--
given-smiles: CN(C)CCCNc1nc2cc([N+](=O)[O-])ccc2nc1NCc1ccc(Cl)cc1
target-entity: Staphylococcus epidermidis
readout-name: MIC
value-reported: 6.22 µg/mL
--
given-smiles: O=[N+]([O-])c1ccc2nc(NCc3ccc(C(F)(F)F)cc3)c(N3CCCCC3)nc2c1
target-entity: Staphylococcus epidermidis
readout-name: MIC
value-reported: > 200 µg/mL
--
given-smiles: COc1ccc(CNc2nc3ccc([N+](=O)[O-])cc3nc2NCCCN(C)C)cc1
target-entity: Staphylococcus epidermidis
readout-name: MIC
value-reported: 5.13 µg/mL
--
given-smiles: CN(C)CCCNc1nc2cc([N+](=O)[O-])ccc2nc1NCc1cc(C(F)(F)F)cc(C(F)(F)F)c1
target-entity: Staphylococcus epidermidis
readout-name: MIC
value-reported: 0.52 µg/mL
--
given-smiles: CN1CCN(c2nc3cc([N+](=O)[O-])ccc3nc2NCc2ccc(C(F)(F)F)cc2)CC1
target-entity: Staphylococcus epidermidis
readout-name: MIC
value-reported: 4.46 µg/mL
--
given-smiles: CN(C)CCCCNc1nc2cc([N+](=O)[O-])ccc2nc1NCc1ccc(C(F)(F)F)cc1
target-entity: Staphylococcus epidermidis
readout-name: MIC
value-reported: 3.47 µg/mL

---

Entries and their measured log10(MIC) follow.
- System: Staphylococcus epidermidis
- experimental-protocol: Antibacterial activity against Staphylococcus epidermidis MTCC3615 by broth microdilution assay
- Type: functional
readout-name: log10(MIC) (log10 of the value in µg/mL)

given-smiles: CN(C)CCCNc1nc2cc([N+](=O)[O-])ccc2nc1NCc1ccc(F)cc1
log10(MIC): 0.78

given-smiles: CN(C)CCCNc1nc2cc([N+](=O)[O-])ccc2nc1NCc1cccc(Br)c1
log10(MIC): 0.36

given-smiles: CN(C)CCCNc1nc2cc([N+](=O)[O-])ccc2nc1NCc1ccccc1Br
log10(MIC): 0.66

given-smiles: CN(C)CCCNc1nc2cc([N+](=O)[O-])ccc2nc1NCc1ccc(Br)cc1
log10(MIC): 0.54

given-smiles: CN(C)CCCNc1nc2cc([N+](=O)[O-])ccc2nc1NCc1ccc(C(F)(F)F)cc1
log10(MIC): 0.35

given-smiles: Cc1ccccc1CNc1nc2ccc([N+](=O)[O-])cc2nc1NCCCN(C)C
log10(MIC): 0.90

given-smiles: CN(C)CCCNc1nc2cc([N+](=O)[O-])ccc2nc1NCc1ccc(Cl)c(C(F)(F)F)c1
log10(MIC): -0.02

given-smiles: CS[C@@H]1SC[C@H]2C(=O)N(C)[C@@H](C(C)C)C(=O)OC[C@@H](NC(=O)c3cnc4ccccc4n3)C(=O)N[C@@H](C)C(=O)N(C)[C@@H]1C(=O)N(C)[C@@H](C(C)C)C(=O)OC[C@@H](NC(=O)c1cnc3ccccc3n1)C(=O)N[C@@H](C)C(=O)N2C
log10(MIC): -1.70
